pIC50: −log10 of the molar value.
Read-out record for JMJD2C (Homo sapiens (Human), UniProt Q9H3R0): pIC50
endpointLabel: pIC50

>  <compound>
CN1CC=C(c2cccc(N(C)c3ccc(Oc4nc(O)c5ccncc5n4)cc3)c2)CC1

>  <endpointLabel>
pIC50

>  <experimentalResult>
≥ 7.00

$$$$
>  <compound>
CC(C)CN(c1ccc(Oc2nc(O)c3ccncc3n2)cc1)c1ccc(C(C)C)cc1

>  <endpointLabel>
pIC50

>  <experimentalResult>
5.00 to 6.00

$$$$
>  <compound>
CC(C)c1ccc(N(c2ccc(Oc3nc(O)c4ccncc4n3)cc2)C(C)C)cc1

>  <endpointLabel>
pIC50

>  <experimentalResult>
5.00 to 6.00

$$$$
>  <compound>
Cc1ccc(N2CCN(C)CC2)cc1N(C)c1ccc(Oc2nc(O)c3ccncc3n2)cc1

>  <endpointLabel>
pIC50

>  <experimentalResult>
≥ 7.00

$$$$
>  <compound>
CCOc1ccc(N2CCN(C)CC2)cc1N(C)c1ccc(Oc2nc(O)c3ccncc3n2)cc1

>  <endpointLabel>
pIC50

>  <experimentalResult>
≥ 7.00

$$$$
>  <compound>
CN1CCN(c2cc(N(C)c3ccc(Oc4nc(O)c5ccncc5n4)cc3)ccc2OCC(F)(F)F)CC1

>  <endpointLabel>
pIC50

>  <experimentalResult>
≥ 7.00

$$$$
>  <compound>
Cc1cc(Oc2nc(O)c3ccncc3n2)ccc1N(C)c1cccc(N2CCN(C)CC2)c1

>  <endpointLabel>
pIC50

>  <experimentalResult>
≥ 7.00

$$$$
>  <compound>
CN1CCN(c2cccc(N(C)c3ccc(Oc4nc(O)c5ccncc5n4)cc3C(F)(F)F)c2)CC1

>  <endpointLabel>
pIC50

>  <experimentalResult>
≥ 7.00

$$$$
>  <compound>
CC(C)c1ccc(N(c2ccc(Oc3nc(O)c4ccncc4n3)cc2)C2CCN(C)CC2)cc1

>  <endpointLabel>
pIC50

>  <experimentalResult>
≥ 7.00

$$$$
>  <compound>
CC(C)c1ccc(N(c2ccc(Oc3nc(O)c4ccncc4n3)cc2)C2CCCN(C)C2)cc1 (stereo not drawn)

>  <endpointLabel>
pIC50

>  <experimentalResult>
≥ 7.00

$$$$
>  <compound>
COc1ccc(N2CCN(C)CC2)cc1N(C)c1ccc(Oc2nc(O)c3ccncc3n2)cc1

>  <endpointLabel>
pIC50

>  <experimentalResult>
≥ 7.00

$$$$
>  <compound>
CC(C)c1ccc(N(c2ccc(Oc3nc(O)c4ccncc4n3)cc2)C2CCN(C)C2)cc1 (stereo not drawn)

>  <endpointLabel>
pIC50

>  <experimentalResult>
≥ 7.00

$$$$
